Molecular target: Neuropeptide Y receptor type 2 (Homo sapiens) (UniProt P49146)
Sequence (P49146 whole entry, looked up): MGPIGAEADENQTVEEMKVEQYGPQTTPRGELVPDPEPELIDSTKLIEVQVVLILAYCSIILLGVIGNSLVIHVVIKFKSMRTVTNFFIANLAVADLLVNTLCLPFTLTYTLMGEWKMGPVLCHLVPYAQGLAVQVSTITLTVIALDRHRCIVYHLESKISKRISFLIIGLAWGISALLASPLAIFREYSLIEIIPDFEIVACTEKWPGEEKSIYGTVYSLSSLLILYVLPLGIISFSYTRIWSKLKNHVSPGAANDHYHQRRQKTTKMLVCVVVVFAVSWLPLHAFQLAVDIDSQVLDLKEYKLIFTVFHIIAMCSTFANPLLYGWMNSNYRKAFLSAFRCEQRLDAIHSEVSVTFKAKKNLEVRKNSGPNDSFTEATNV
Test: NPY-Y2 direct agonists without NPY, counter-screen for NPY-Y1 potentiator project, cell-based, fluorescence (AID 1698);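 further: 0% = DMSO with isoproterenol and 100% = 40 nM NPY maximal response; agonism lowers cAMP so well fluorescence drops in active wells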
Settings: HEK293 Y2-CNGC, membrane potential fluorescence, agonist mode; at 3.6 µM; stronger effect = higher value
Some of the results follow.
RECORDED_ENDPOINT: activation (%)
Just the number please, in %, no unit attached.

Find the recorded activation belonging to `CSc1nc(-c2ccco2)nn1C(=O)c1ccccc1Cl` and report it.
26

// repeat for `COC(=O)c1ccc(NC(=O)CN(c2ccc(C)cc2)S(=O)(=O)c2c(C)n[nH]c2C)cc1` and report
47

Continue with `O=[N+]([O-])c1cc(Cl)cc(/C=N/NC(=S)Nc2cc(S(=O)(=O)N3CCOCC3)ccc2Cl)c1O`
63.2

One more compound: COCCn1nnnc1C(c1ccccc1Cl)N1CCN(c2ccccc2OC)CC1 (centres undefined)
6.66

Further, for Cc1cccc(OCC(O)CN2CCN(CCN3C(=O)c4cccc5cccc(c45)C3=O)CC2)c1C (centres undefined) ?
63

Next up: CN1C(=O)c2ccccc2C(C(=O)NCCCN2CCCC2)C1c1c[nH]c2ccccc12 (centres undefined)
-0.28

Try the compound `O=C(c1cccs1)N1CCN(C(=O)N2CCOCC2)CC1`
-9.63

Another: `Cc1ccccc1NCC(=O)N/N=C\c1ccc([N+](=O)[O-])s1`
39.5

Input `CC1=C/C(=N\OS(=O)(=O)c2ccccc2)C=CC1=O`
26.8
